Measured values drawn from patent US20260132208A1 for this set.

# target entity: human CCR8 (human, UniProt P51685 1-355)
# assay procedure: cell-based or functional assay
measured parameter: residual hCCL1 (100 nM) Gi2 response, protocol #2, mAb 0.4 µg/mL (%)
Report the figure in % without appending any unit label.

anti-CCR8 mAb 1-16 (antibody, V domains shown, Murine hybridoma mAb) VH: EVQLQQSGPELVKPGASVKISCKASVYSFTGSYMHWVKQSHVKSLEWIGRINPYNGATSYNQNFKDKASLTVDKSSSTAYMELHSLTSEDSAVYYCATTLLRLLDYWGQGTTLTVSS VL: DIVMTQAAFSNPVTLGTSASISCRSSKSLLHSNGITYLYWYLQKPGQSPQLLIYQMSNLASGVPDRFSSSGSGTDFTLRISRVEAEDVGVYYCAQNLELPWTFGGGTKLEIK | 96

# context switch: different binder, same residual hCCL1 (100 nM) Gi2 response, protocol #2, mAb 0.4 µg/mL
Query block: For the binder shown here, anti-CCR8 mAb 1-14 (antibody, V domains shown, Murine hybridoma mAb) VH: QVQLVETGGGLVRPGNSLKLSCVTSGFTFSNYRMHWLRQPPGKRLEWIAVIKVKSDNYGANYAESVKGRFTISRDDSKSSVYLQVNRLREEDTATYYCSSPTYPGSSGFAYWGQGTLVTVSA VL: DIQMTQTTSSLSASLGDRVTISCRASQDISNYLNWYQQKPDGTVKLLIYYTSRLHSGVPSRFSGSGSGTDYSLTISNLEQEDIATYFCQQGNKFPPTFGGGTKLEIN , give the reported residual hCCL1 (100 nM) Gi2 response, protocol #2, mAb 0.4 µg/mL.
Result block: 89
